Molecular target: Nuclear receptor ROR-gamma (Homo sapiens, UniProt P51449)
Sequence (P51449 whole entry): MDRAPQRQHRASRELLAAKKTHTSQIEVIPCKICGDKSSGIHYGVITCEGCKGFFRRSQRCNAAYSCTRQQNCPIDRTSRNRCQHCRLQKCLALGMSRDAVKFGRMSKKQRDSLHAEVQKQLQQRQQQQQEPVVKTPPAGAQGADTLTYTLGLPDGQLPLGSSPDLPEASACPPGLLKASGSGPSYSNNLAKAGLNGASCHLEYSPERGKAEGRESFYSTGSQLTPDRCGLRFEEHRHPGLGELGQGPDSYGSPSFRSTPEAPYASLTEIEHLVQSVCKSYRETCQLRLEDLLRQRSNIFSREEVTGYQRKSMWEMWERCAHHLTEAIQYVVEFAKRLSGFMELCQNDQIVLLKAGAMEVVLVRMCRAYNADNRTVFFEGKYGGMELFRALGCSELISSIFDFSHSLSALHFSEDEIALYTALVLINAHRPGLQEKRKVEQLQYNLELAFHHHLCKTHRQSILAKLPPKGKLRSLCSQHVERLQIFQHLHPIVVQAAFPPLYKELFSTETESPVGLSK
Assay: Inverse agonist activity at human recombinant GST-tagged RORgammat ligand binding domain assessed as effect on receptor-biotin tagged TRAP220 co-activator peptide interaction using 10 nM GST-RORgamma LBD by FRET-based assay
pIC50: −log10 of the molar value.
Param threshold (6) applies to pIC50; output condition met when value >= threshold, condition not met when value < threshold.

Q: Say whether CN(C(=O)c1c(F)cccc1Cl)c1ccc(-c2cc(C(N)=O)ccc2Cl)cc1F shows pIC50 of 6 or more.
Ans: condition not met

---

Attribute: AUC(0-inf)
experiment: AUC (infinity) in rat at 10 mg/kg, po; type: ADME, organism-based; parameters: dose 10 mg/kg, route oral, time infinity; settings: in vivo
# output: bare number, implied unit ng·h/mL

1) [2H]C([2H])([2H])N(C(=O)c1c(F)cccc1Cl)c1ccc(-c2cc(C(N)=O)ccc2Cl)cc1OCC(F)(F)F 3130

As a next step, examine the compound that follows.
Q: Tell me AUC(0-inf) reported for CN(C(=O)c1c(F)cccc1Cl)c1ccc(-c2cc(C(N)=O)ccc2Cl)cc1OCC(F)(F)F
Ans: 1550

---

test: Apparent permeability from apical to basolateral side in human Caco2 cells; format: ADME, cell-based; settings: Caco-2
property_measured: Papp A→B (×10⁻⁶ cm/s)
# output: bare number, implied unit ×10⁻⁶ cm/s

1. CN(C(=O)c1c(F)cccc1Cl)c1ccc(-c2cc(C(N)=O)ccc2Cl)cc1OCC(F)(F)F 32.2

As a next step, examine the compound that follows.
Q: Tell me Papp A→B reported for CN(C(=O)c1c(F)cccc1Cl)c1ncc(-c2cc(C(N)=O)ccc2Cl)cc1OCC(F)(F)F
Ans: 35.9

---

experiment: Clearance in human hepatocytes relative to hepatic blood flow; assay type: ADME, cell-based, Liver, Hepatocyte; settings: read-out: CLH
Attribute: hepatic extraction ratio

These solved cases illustrate the format of a correct answer.
1. NC(=O)c1ccc(Cl)c(-c2ccc3c(c2)C(F)(F)CCN3C(=O)c2c(F)cccc2Cl)c1 0.74
2. [2H]C([2H])([2H])N(C(=O)c1c(F)cccc1Cl)c1ccc(-c2cc(C(N)=O)ccc2Cl)cc1OCC(F)(F)F 0.51
3. CN(C(=O)c1c(F)cccc1Cl)c1ccc(-c2cc(C(N)=O)ccc2Cl)cc1OCC(F)(F)F 0.88

Q: Tell me hepatic extraction ratio reported for NC(=O)c1ccc(Cl)c(-c2ccc3c(c2)OCCN3C(=O)c2c(F)cccc2Cl)c1
Ans: 0.76
